# assaySystem: α-synuclein fibrils (human), P37840
# assayRemarks: SPR, BIAcore X100; fibrils immobilised on CM5, mAb injected at 0.01-10 nM
# settings: remark: other sources report otherwise
Listed binders paired with reported kon

{"columns": ["binder", "kon [M⁻¹ s⁻¹]"],
 "data": [
  ["Syn-O4 (antibody, IgG1, V domains shown) VH: EVQLVESGGGLVQPKGSLKLSCAASGFTFNTYAMHWVRQAPGKGLEWVARIRSKSSNYATYYADSVKDRFTISRDDSQSMLYLQMNNLKTEDTAMYYCVRPLKWYFDVWGTGTTVTVSS VL: QIVLTQSPAILSASPGEKVTMTCSASSTVNYMHWYQQKSGTSPKIWIYDTSKLASGVPARFSGSGSWTSYSLTISSMEAEDAATYYCQQWNSNPPTFGAGTKLELK", "7.24e+06"],
  ["Syn-O3 (antibody, IgG1, V domains shown) VH: EVQLVESGGGLVQPKGSLKLSCAASGFTFNTYAMHWVRQAPGKGLEWVARIRSKSSNYATYYADSVKDRFTISRDDSQSMLYLQMNNLKTEDTAMYYCVRPLKWYFDVWGTGTTVTVSS VL: QIVLTQSPAILSASPGEKVTMTCSASSTVNYMHWYQQKSGTSPKIWIYDTSKLASGVPARFSGSGSWTSYSLTISSMEAEDAATYYCQQWNSNPPTFGAGTKLELK", "2.22e+06"],
  ["Syn-O2 (antibody, IgG1, V domains shown) VH: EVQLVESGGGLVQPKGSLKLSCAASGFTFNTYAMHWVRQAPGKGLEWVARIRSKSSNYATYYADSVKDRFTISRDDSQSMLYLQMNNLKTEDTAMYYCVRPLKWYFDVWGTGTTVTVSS VL: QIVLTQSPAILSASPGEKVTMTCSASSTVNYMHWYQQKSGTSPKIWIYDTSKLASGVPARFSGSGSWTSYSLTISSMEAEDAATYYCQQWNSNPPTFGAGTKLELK", "1.31e+07"]
]}

src = patent US20140241984A1
